Can you tell me Reduction for the items I'm about to list?
# Tested on: Rattus norvegicus
# procedure summary: Antiinflammatory activity was assessed by the ability to improve the adjuvant induced arthritis in left secondary lesion in rats at oral doses, 33 mg/kg (volume change in the injected paw measured from day 9 to day 18)
# Format: functional
Respond with a number, then the unit of measure.

Field: example entries. Status: answers known.
{"compound": "Cc1ccc(C(=O)c2ccc(O)c(C(C)C(=O)O)c2)s1 (stereo unspecified)", "recorded measurement": "29%"}
{"compound": "CC1C(=O)Oc2ccc(C(=O)c3ccccc3)cc21 (stereo unspecified)", "recorded measurement": "52%"}
{"compound": "CC1C(=O)Oc2ccc(C(=O)c3ccco3)cc21 (stereo unspecified)", "recorded measurement": "25%"}
{"compound": "CC(C(=O)O)c1cc(C(=O)c2ccc(F)cc2)ccc1O (stereo unspecified)", "recorded measurement": "56%"}
{"compound": "CC(C(=O)O)c1cc(C(=O)c2cccs2)ccc1O (stereo unspecified)", "recorded measurement": "35%"}

Consider now this further compound.
Param item = CC1C(=O)Oc2ccc(C(=O)c3cccs3)cc21 (stereo unspecified) ; retrieve measured Reduction. 48%

====

# Test system: Rattus norvegicus
# procedure summary: Antiinflammatory activity was assessed by the ability to improve the adjuvant induced arthritis in left secondary lesion in rats at oral doses, 33 mg/kg (volume change in the injected paw measured from day 9 to day 18)
# Type: functional
Can you tell me Reduction for the items I'm about to list?
Answers are plain numbers, in %.

{"molecule": "O=C1Oc2ccc(C(=O)c3cccs3)cc2/C1=C/c1ccc(Cl)cc1", "Reduction, %": -14}
{"molecule": "C=CCOc1ccc(C(=O)c2cccs2)cc1C(C)C(=O)O (stereo not drawn)", "Reduction, %": 3}

Consider now this further molecule.
Under Rattus norvegicus: Reduction value of CCCC1C(=O)Oc2ccc(C(=O)c3cccs3)cc21 (stereo not drawn) ? 67

====

# Tested on: Rattus norvegicus
# procedure summary: Ability to improve the adjuvant induced arthritis in right secondary lesion in rats at oral doses, 33 mg/kg
# Type: functional
observed property: Reduction (%)
Answers are plain numbers, in %.

Field: example entries. Status: answers known.
{"compound": "CCC(CC)(C(=O)O)c1cc(C(=O)c2cccs2)ccc1O", "Reduction, %": 22}
{"compound": "CCC1(CC)C(=O)Oc2ccc(C(=O)c3cccs3)cc21", "Reduction, %": 17}
{"compound": "CC1(C)C(=O)Oc2ccc(C(=O)c3cccs3)cc21", "Reduction, %": 36}

Hello, I would appreciate it if you could give Reduction for each entry below.
1. CC1C(=O)Oc2ccc(C(=O)c3ccccc3)cc21 (configuration not stated)
2. CC1C(=O)Oc2ccc(C(=O)c3ccc(F)cc3)cc21 (configuration not stated)
3. CC(C)(C)c1cc(/C=C2\C(=O)Oc3ccc(C(=O)c4cccs4)cc32)cc(C(C)(C)C)c1O
4. CC(C(=O)O)c1cc(C(=O)c2ccc(F)cc2)ccc1O (configuration not stated)
5. O=C1Oc2ccc(C(=O)c3cccs3)cc2/C1=C/c1ccc(C(F)(F)F)cc1
6. CCC1C(=O)Oc2ccc(C(=O)c3cccs3)cc21 (configuration not stated)
7. CCCCC(C(=O)O)c1cc(C(=O)c2cccs2)ccc1O (configuration not stated)
8. O=C1Cc2cc(C(=O)c3cccs3)ccc2O1

35
10
-7
32
19
51
29
9

Param item = CC1C(=O)Oc2ccc(C(=O)c3ccco3)cc21 (configuration not stated) ; retrieve measured Reduction. 12
